Target: Paired box protein Pax-6 (Homo sapiens)
Assay: ATG_Pax6_CIS: Attagene CIS-FACTORIAL HepG2 Assay for human Paired Box 6 (PAX6) (AID 2282956)
Conditions: HepG2 CIS-FACTORIAL PAX6 reporter transcription, RNA readout; actives raise or lower the signal
Active and inactive are the calls of the source. Rule for the calls: active = hit-call score of the fitted dose curve at least 0.9, where 1 is the maximum; inactive = score below 0.9.
Allowed answers: label 1 = active, label 0 = inactive

See these solved cases before continuing.
INSERT INTO assay_data (molecule, label_class) VALUES
  ('CC/C=C\CCOC(C)=O', 'label 0'),
  ('CC(CCl)OP(=O)(OC(C)CCl)OC(C)CCl (stereo unspecified)', 'label 0'),
  ('CN(C)Cc1ccccc1O', 'label 0'),
  ('CCN(Cc1cccc(S(=O)(=O)O)c1)c1ccc(C(=C2C=CC(=[N+](CC)Cc3cccc(S(=O)(=O)O)c3)C=C2)c2ccc(O)cc2S(=O)(=O)[O-])cc1', 'label 0');

Which outcome did this test record for the molecule Cc1cccc(N(C)C)c1 ?
label 0

Moving on to the next molecule: CCCCCCS
label 0

----------
Read-out: Macrophage colony-stimulating factor (MCSF), CSF1 (gene 1435)
Test: BSK_hDFCGF_MCSF: BioMAP Diversity Plus: hDFCGF Assay for Macrophage colony-stimulating factor (MCSF) Biomarker Activity (AID 2283060)
Conditions: primary human foreskin fibroblasts; actives raise or lower the signal
Activity calls are given as the source filed them. Rule for the calls: active = hit-call score of the fitted dose curve at least 0.9, where 1 is the maximum; inactive = score below 0.9.
Respond only with the outcome that fits, drawn from yes for active, no for inactive

Here's what some known entries look like.
INSERT INTO measurements (molecule, label_class) VALUES
  ('CS(C)(=O)=O', 'no'),
  ('O=C(O)C(F)(F)C(F)(F)C(F)F', 'no'),
  ('FC(F)(Br)C(F)(F)C(F)(F)C(F)(F)C(F)(F)C(F)(F)Br', 'no'),
  ('O=C(O)C(F)(F)C(F)(F)OC(F)(F)F', 'no'),
  ('CCc1ccc(C(c2ccc(CC)cc2)C(Cl)Cl)cc1', 'yes'),
  ('CCN(CC)c1ccc2c(C)cc(=O)oc2c1', 'no');

// next entry
Hello, I am checking results. What call was entered for O=S(=O)(OCCOC(F)(F)F)C(F)(F)F ?
no

----------
Molecular target: Bile acid receptor (Homo sapiens) (UniProt Q96RI1)
Sequence (Q96RI1 whole entry, looked up): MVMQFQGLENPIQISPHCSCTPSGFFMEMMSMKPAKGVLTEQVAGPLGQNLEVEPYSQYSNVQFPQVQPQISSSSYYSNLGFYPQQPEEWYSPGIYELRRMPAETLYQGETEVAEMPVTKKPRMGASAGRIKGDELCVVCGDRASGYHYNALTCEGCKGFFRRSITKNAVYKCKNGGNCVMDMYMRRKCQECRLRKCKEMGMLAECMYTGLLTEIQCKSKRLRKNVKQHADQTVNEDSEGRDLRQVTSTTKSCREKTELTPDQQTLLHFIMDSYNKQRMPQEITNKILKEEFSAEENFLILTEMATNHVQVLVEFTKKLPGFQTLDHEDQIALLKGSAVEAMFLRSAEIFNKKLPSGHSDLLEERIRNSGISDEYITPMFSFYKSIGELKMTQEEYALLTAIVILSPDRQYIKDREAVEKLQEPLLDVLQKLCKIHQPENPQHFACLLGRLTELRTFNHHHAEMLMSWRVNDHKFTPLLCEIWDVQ
Experiment: OT_FXR_FXRSRC1_1440: Odyssey Thera (OT) 24-hour HEK293T Protein-Complementation Assay for Farnesoid X receptor/SRC-1 Co-activator (AID 2283384)
Method: OT_FXR_FXRSRC1_1440 is a cell-based assay that uses HEK293T, a human kidney cell line, with measurements taken at 24 hours after chemical dosing in a 384-well plate.OT_FXR_FXRSRC1_1440 is one of one assay component(s) measured or calculated from the OT_FXR_FXRSRC1_1440 assay. […] This assay endpoint, OT_FXR_FXRSRC1_1440, was analyzed in the positive analysis fitting direction relative to DMSO as the negative control and baseline of activity. […]
Inconclusive results are not listed. Activity calls are given as the source filed them. How the source made its calls: active means hit-call score of the fitted dose curve at least 0.9, where 1 is the maximum; inconclusive means response in the unintended direction; inactive means score below 0.9.
measured_property: AC50

Consider the worked cases shown below.
INSERT INTO measurements (compound, result) VALUES
  ('CCCCOc1ccc(N)cc1', '36.9 µM (active)'),
  ('c1ccc(B(c2ccccc2)c2ccccc2)cc1', 'inactive'),
  ('CCCCCCOC(=O)c1ccccc1O', 'inactive'),
  ('CCCCC(CC)COP(=O)(O)OCC(CC)CCCC (stereo not drawn)', '71.8 µM (active)'),
  ('CNC(=S)NC', 'inactive');

So what does the record say about AC50 for C(=C(c1ccccc1)c1ccccc1)c1ccccc1 ?
76.8 µM (active)

Further, for CN(C)Cc1ccccc1O ?
inactive

What would you report for CC(CCl)OP(=O)(OC(C)CCl)OC(C)CCl (stereo not drawn) ?
inactive

----------
Tested on: SERPINA7 (gene 6906)
Test: CCTE_GLTED_hTBG: CCTE's human Thyroxine-binding Globulin (TBG) Inhibition Assay, Great Lakes Toxicology and Ecology Division (GLTED) Lab (AID 2284343);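 note: active chemicals lower fluorescence versus DMSO baseline by displacing probe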
The source made the active and inactive calls. Rule for the calls: active = hit-call score of the fitted dose curve at least 0.9, where 1 is the maximum; inconclusive = response in the unintended direction; inactive = score below 0.9.
Let's look at some molecules and their measured AC50.

Examples with their reported AC50 follow.
INSERT INTO measurements (molecule, experimental_target, result) VALUES
  ('CCCCC(CC)COP(=O)(O)OCC(CC)CCCC (centres undefined)', 'SERPINA7 (gene 6906)', '2.42 µM (active)'),
  ('C=CC(=O)OCC(F)(F)C(F)(F)C(F)(F)C(F)(F)COC(=O)C=C', 'SERPINA7 (gene 6906)', '18.2 µM (active)'),
  ('O=C(O)C(F)(F)C(F)(F)C(F)(F)C(F)(F)C(F)(F)C(F)(F)C(F)(F)C(F)(F)Cl', 'SERPINA7 (gene 6906)', '62.6 µM (active)');

Next item in the queue.
Returns the measured AC50 for the input molecule. Input: O=S(=O)(O)c1ccc2ccccc2c1
24.5 µM (active)

----------
Experiment: CCTE_Padilla_ZF_Score.Any: CCTE's 144 Hour Post-fertilization zebrafish Assay Score for Any Mortality or Malformation, Padilla Lab (AID 2284416)
Calls of active or inactive are those of the source. How the source made its calls: active means hit-call score of the fitted dose curve at least 0.9, where 1 is the maximum; inactive means score below 0.9.
Result category, one only: Y (active), N (inactive)

Would you please look over these solved cases?
INSERT INTO assay_data (smiles_entry, label_class) VALUES
  ('O=C(O)C(F)(F)C(F)(F)C(F)(F)C(F)(F)C(F)(F)C(F)(F)C(F)(F)C(F)(F)Cl', 'Y'),
  ('CCCCCCCCC(F)(F)C(F)(F)C(F)(F)C(F)(F)C(F)(F)C(F)(F)F', 'N'),
  ('C=CC(=O)OCC(F)(F)C(F)(F)C(F)(F)C(F)(F)COC(=O)C=C', 'Y');

Hi, sorry to bother you, what did the test record for C=CC(=O)OCC(F)(F)C(F)(F)C(F)(F)C(F)(F)C(F)(F)C(F)(F)C(F)(F)F ?
N

# repeat for O=S(=O)(OCC(F)F)C(F)(F)F
N

----------
Assay: CCTE_Shafer_MEA_dev_LDH: CCTE's Lactate Dehydrogenase Assay for Cytotoxicity in the Neural Network Formation Assay, Shafer Lab (AID 2284068);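 note: exposure for twelve days from plating with re-dosing on DIV 5 and 9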
Records with an inconclusive call do not appear. The source made the active and inactive calls. Rule for the calls: active = hit-call score of the fitted dose curve at least 0.9, where 1 is the maximum; inconclusive = response in the unintended direction; inactive = score below 0.9.
API: response.call in active, inactive

INSERT INTO measurements (smiles_entry, label_class) VALUES
  ('O=C(O)C=C(C(F)(F)F)C(F)(F)F', 'inactive'),
  ('OCC(F)(F)C(F)(F)C(F)(F)C(F)F', 'inactive'),
  ('OCC(F)(F)C(F)(F)C(F)(F)C(F)(F)C(F)(F)C(F)F', 'inactive'),
  ('OCCCC(F)(F)C(F)(F)C(F)(F)F', 'inactive'),
  ('Cc1ccc(S(=O)(=O)OCC(F)(F)C(F)(F)C(F)(F)C(F)(F)C(F)(F)C(F)F)cc1', 'inactive'),
  ('O=P(O)(O)OCCC(F)(F)C(F)(F)C(F)(F)C(F)(F)C(F)(F)C(F)(F)F', 'active'),
  ('O=C(O)C(F)(F)C(F)(F)C(F)(F)C(F)(F)C(F)(F)C(F)(F)C(F)(F)C(F)(F)C(F)(F)C(F)F', 'inactive');

Note: attention shifts to another entry.
What call does the record list for O=C(O)C(F)(F)C(F)(F)C(F)(F)C(F)(F)C(F)(F)C(F)(F)C(F)(F)C(F)(F)Cl ?
inactive

----------
Assay: BSK_LPS_PGE2: BioMAP Diversity Plus: LPS Assay for Prostaglandin E2 (PGE2) Biomarker Activity (AID 2283082)
Settings: primary human HUVEC with PBMC; actives raise or lower the signal
Active and inactive are the calls of the source. The calls were made as follows: active = hit-call score of the fitted dose curve at least 0.9, where 1 is the maximum; inactive = score below 0.9.
Select the matching outcome among TRUE (active), FALSE (inactive)

Observe how each entry below is paired with its result.
INSERT INTO assay_data (compound, label_class) VALUES
  ('FC(F)(F)C(F)(F)C(F)(F)C(F)(F)C(F)(F)C(F)(F)CC1CO1 (configuration not stated)', 'FALSE'),
  ('Cc1ccc(S(=O)(=O)OCC(F)(F)C(F)(F)C(F)(F)C(F)(F)C(F)(F)C(F)F)cc1', 'FALSE'),
  ('FC(F)(F)C(F)(F)C(F)(F)CI', 'FALSE'),
  ('CC(=O)Nc1ccc(N=Nc2cc(C)ccc2O)cc1', 'FALSE'),
  ('CCCCCCCCCCCCCCCC[N+](C)(C)Cc1ccccc1', 'FALSE'),
  ('O=C(O)C(F)(F)C(F)(F)C(F)F', 'FALSE'),
  ('O=C(Cl)C(F)(F)C(F)(F)C(F)(F)C(F)(F)C(F)(F)C(F)(F)C(F)(F)C(F)(F)F', 'FALSE'),
  ('FC(F)(F)C(F)(F)C(F)(F)C(F)(F)C(F)(F)C(F)(F)C(F)(F)C(F)(F)CCS', 'FALSE'),
  ('FC(F)(F)C(F)(F)C(F)(F)C(F)(F)C(F)(F)CCI', 'FALSE'),
  ('Oc1ccc(Nc2ccccc2)cc1', 'TRUE');

Which outcome did this test record for the compound OCC(F)(F)C(F)(F)C(F)(F)F ?
FALSE

CCCCOCCOCCOC(=O)CCCCC(=O)OCCOCCOCCCC , same question.
FALSE
